Below, each entry is listed with its recorded GI50.
System: COLO 205
Experiment: NCI tumour cell line growth inhibition, 48 h
The source made the active and inactive calls. No stated cut-off is given here; in the data, active = GI50 up to about 1.1 µM and inactive = higher.

Some compounds with known GI50 results, for comparison:
[
  {
    "compound": "COC(=O)[C@H](Cc1c[nH]c2ccccc12)NP(=O)(O)OC[C@H]1O[C@@H](n2cc(C)c(=O)[nH]c2=O)C[C@@H]1N=[N+]=[N-]",
    "system-name": "COLO 205",
    "parameter": "GI50",
    "measured": "> 100 µM (inactive)"
  },
  {
    "compound": "CN1CCOC(C(NC(=O)c2ccccc2)c2ccccc2)C1=O (stereo not given)",
    "system-name": "COLO 205",
    "parameter": "GI50",
    "measured": "> 100 µM (inactive)"
  },
  {
    "compound": "[N-]=[N+]=NC1(c2ccccc2)C(=O)Nc2ccccc2C1=O (stereo not given)",
    "system-name": "COLO 205",
    "parameter": "GI50",
    "measured": "71.4 µM (inactive)"
  },
  {
    "compound": "CCC1(O)CC(c2ccccc2)N(C)C(c2ccccc2)C1 (stereo not given)",
    "system-name": "COLO 205",
    "parameter": "GI50",
    "measured": "> 100 µM (inactive)"
  },
  {
    "compound": "C=C1C(=O)O[C@H]2[C@H](OC(C)=O)[C@@H](C)CCC/C(C)=C/CC[C@@]3(C)O[C@@H]3C[C@@H]12",
    "system-name": "COLO 205",
    "parameter": "GI50",
    "measured": "3.19 µM (inactive)"
  }
]

Quick note, GI50 for NC(=O)C(=O)N/N=C1/c2ccccc2CC1C1(O)C(=O)Nc2c(Cl)cc(Cl)cc21 (stereo not given) landed at > 100 µM (inactive)

Kindly note the recorded GI50 for O=C(C1OC1c1ccc(O)cc1)C12CC3CC(CC(C3)C1)C2 (stereo not given) , which is 29.5 µM (inactive)

Per the records, this compound ( CC12CC3CC(C)(C1)CC(N=[N+]=[N-])(C3)C2 ) has GI50 equal to > 100 µM (inactive)

// GI50 lookup, compound = CC1=COC2=C(C)C(=O)C(=O)c3c(C)ccc1c32 , result: 2.55 µM (inactive)

// recorded GI50 for O=C1Nc2ccccc2/C1=N/Nc1ccccc1[N+](=O)[O-] : 69.7 µM (inactive)

Reported GI50 of COc1cccc(O)c1-c1cc(=O)c2c(O)c(OC)c(OC)c(OC)c2o1 : 16.5 µM (inactive)

Record summary for CCOC(=O)C1(C(=O)OCC)C[C@H]2CON=C2[C@@H]1c1ccc(C(F)(F)F)cc1 : reported GI50 = 26.2 µM (inactive)
